Numbers sourced from PubChem BioAssay.

- TARGET UNDER TEST: Voltage-gated potassium channel subunit beta-2 (Rattus norvegicus) (UniProt P62483)
- Sequence (P62483 whole entry, looked up): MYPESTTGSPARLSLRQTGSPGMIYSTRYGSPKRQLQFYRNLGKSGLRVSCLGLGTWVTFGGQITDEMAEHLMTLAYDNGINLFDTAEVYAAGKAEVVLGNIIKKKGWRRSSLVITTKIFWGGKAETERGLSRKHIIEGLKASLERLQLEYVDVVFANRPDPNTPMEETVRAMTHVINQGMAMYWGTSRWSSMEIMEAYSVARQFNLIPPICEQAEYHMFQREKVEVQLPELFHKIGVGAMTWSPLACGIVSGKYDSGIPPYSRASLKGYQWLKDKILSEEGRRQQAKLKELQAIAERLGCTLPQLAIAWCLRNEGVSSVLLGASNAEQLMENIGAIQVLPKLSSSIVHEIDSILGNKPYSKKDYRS
- ASSAY EXPLANATION: inhibitors of rat Kvbeta2 reductase activity – biochemical, NADPH fluorescence, primary screen (AID 622);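 further: slope of raw intensity against log time taken from 70 to 1610 s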
- CONDITIONS: recombinant KvBeta, 4-cyanobenzaldehyde reduction, at 10 µM, hits give high values
The source made the active and inactive calls.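 How the source made its calls: active means fluorescence slope higher than the sample average by over 3 SD (cut at about -0.22 in these data, passing the limit was not always enough); inactive means the rest.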
READOUT NAME: fluorescence slope

1) COC(=O)Cc1c(C)nc2nc(-c3ccco3)[nH]n2c1=O: -0.467 (inactive)
2) COC(=O)c1cc(NC(=O)C2COc3ccccc3O2)cc(C(=O)OC)c1 (stereo unspecified): -0.517 (inactive)
3) Nc1nc2ccccc2n1/N=C/c1ccc(Br)cc1: -0.47 (inactive)
4) Cn1c(=O)[nH]c(=O)c2c1nc(N1CCNCC1)n2Cc1cccc2ccccc12: -0.59 (inactive)
5) c1cnn(-c2cc(N3CCOCC3)ncn2)c1: -0.5 (inactive)
6) COc1cccc(C(=O)NCC(=O)n2nc(C)cc2C)c1: -0.462 (inactive)
7) COC(=O)c1nc2n(n1)C(c1ccc(OC)c(OC)c1)C(C(=O)OC1CCCCC1)=C(C)N2 (stereo unspecified): -0.315 (inactive)
8) Cc1ccc(-n2c(=O)[nH]c3c(C(N)=O)nc(CC(C)C)nc32)cc1: -0.536 (inactive)
9) CN(CCCC(=O)Nc1ccncc1)S(=O)(=O)c1ccc(Cl)cc1: -0.584 (inactive)
10) CCC(=O)c1ccc(OCC(=O)N2CCc3cc(OC)c(OC)cc3C2)cc1: -0.577 (inactive)
11) C=CCc1cc(C(=O)N2CCCCC2)ccc1O: -0.523 (inactive)
